Examples of compounds with documented Stimulation follow.
Target: DNA topoisomerase 1 (Homo sapiens)
Assay: Stimulation of pKMp27 DNA cleavage by human DNA topoisomerase I in presence of 0.1 uM of compound

# test-smiles, Stimulation
rows = [
    ("CC[C@@]1(O)C(=O)OCc2c1cc1n(c2=O)Cc2cc3ccccc3nc2-1", 8.2),
    ("CC[C@@]1(O)CC(=O)OCc2c1cc1n(c2=O)Cc2cc3cc(F)c(F)cc3nc2-1", 32),
    ("CC[C@@]1(O)CC(=O)OCc2c1cc1n(c2=O)Cc2cc3cc(F)ccc3nc2-1", 17),
    ("CC[C@@]1(O)CC(=O)OCc2c1cc1n(c2=O)Cc2cc3ccc(F)cc3nc2-1", 29),
    ("CC[C@@]1(O)CC(=O)OCc2c1cc1n(c2=O)Cc2cc3ccccc3nc2-1", 21),
    ("CC[C@@]1(O)CC(=O)OCc2c1cc1n(c2=O)Cc2cc3c(F)cc(F)cc3nc2-1", 30),
    ("CC[C@@]1(O)CC(=O)OCc2c1cc1n(c2=O)Cc2cc3c(F)cccc3nc2-1", 18),
    ("CC[C@@]1(O)CC(=O)OCc2c1cc1n(c2=O)Cc2cc3cccc(F)c3nc2-1", 7.3),
]
